- Tested on: SK-MEL-5
- Protocol summary: NCI tumour cell line growth inhibition, 48 h
The source made the active and inactive calls. No stated cut-off is given here; in the data, active = GI50 up to about 1.1 µM and inactive = higher.
Listing of recorded GI50 by entry.

>  <Compound>
COc1nc2c(c(=O)n1C)N(C(C)=O)C1C(N2)OCC(OC(C)=O)C1OC(C)=O (stereo not given)

>  <GI50>
> 10 µM (inactive)

$$$$
>  <Compound>
C/C(=N/c1[nH]c(=O)cc2c1C(=O)CC2)N(C)C

>  <GI50>
> 200 µM (inactive)

$$$$
>  <Compound>
COc1c2cc(C(C)(C)C)cc1Cc1cccc(c1OCc1cccc([N+](=O)[O-])c1)Cc1cc(C(C)(C)C)cc(c1OC)Cc1cccc(c1OCc1cccc([N+](=O)[O-])c1)Cc1cc(C(C)(C)C)cc(c1OC)Cc1cccc(c1OCc1cccc([N+](=O)[O-])c1)C2

>  <GI50>
> 50 µM (inactive)

$$$$
>  <Compound>
Cc1csc2nc3c(cnn3C)c(=S)n12

>  <GI50>
> 100 µM (inactive)

$$$$
>  <Compound>
C1CCC2C(C1)CCCC2NC1=NCCO1 (stereo not given)

>  <GI50>
70 µM (inactive)

$$$$
>  <Compound>
COc1ccc(C(C)NNC(=O)c2cc[n+]([BH2-]C#N)cc2)cc1F (stereo not given)

>  <GI50>
> 100 µM (inactive)

$$$$
>  <Compound>
O=C1NC(=O)C2C(=O)NC(=O)C1C2Cc1ccco1 (stereo not given)

>  <GI50>
> 100 µM (inactive)

$$$$
>  <Compound>
COc1ccc2cc(C(=O)Nc3ccc(O)c(C(=O)O)c3)ccc2c1OC

>  <GI50>
> 100 µM (inactive)

$$$$
>  <Compound>
O=c1[nH]c2cc(C(F)(F)F)ccc2nc1Cc1ccccc1

>  <GI50>
> 100 µM (inactive)

$$$$
>  <Compound>
O=CC(I)=C(c1ccccc1)c1ccccc1

>  <GI50>
17.3 µM (inactive)

$$$$

====

- System: KM-20L2
- Protocol summary: NCI tumour cell line growth inhibition, 48 h
Active and inactive are the calls of the source. Rule as the data show it: active = GI50 up to about 1.1 µM and inactive = higher.

>  <Molecule>
O=C1C(Cl)=C(N2CCN(CCOCCO)CC2)C(=O)c2ccccc21

>  <GI50>
18 µM (inactive)

$$$$
>  <Molecule>
CC(=O)Nc1ccc(-c2nnc(SCC(=O)Nc3cccc([N+](=O)[O-])c3)o2)cc1

>  <GI50>
17.8 µM (inactive)

$$$$
>  <Molecule>
Clc1cccc(C2N3CCCCC3[C@@H]3c4[nH]c5ccccc5c4CCN23)c1 (some centres undefined)

>  <GI50>
56.8 µM (inactive)

$$$$
>  <Molecule>
CCO/N=C(/N)c1ncn(Cc2ccccc2)c1NCC(OCC)OCC

>  <GI50>
> 100 µM (inactive)

$$$$

====

- System: SF-295
- Protocol summary: NCI tumour cell line growth inhibition, 48 h
Active and inactive are the calls of the source. Cut-off read from the data, not from the text of the source: active = GI50 up to about 1.1 µM and inactive = higher.
Listing of recorded GI50 by entry.

>  <Molecule>
COc1cc2c(c(O)c1OC)C(=O)C1CCC(=O)N1C2c1cccc2ccccc12 (centres undefined)

>  <GI50>
43.2 µM (inactive)

$$$$
>  <Molecule>
CCN(CC)Cc1ccccc1CC(=O)N1c2ccccc2C(=O)Nc2cccnc21

>  <GI50>
> 100 µM (inactive)

$$$$
>  <Molecule>
Cc1c(C)c(S(=O)(=O)N(CCCN)OCCCN)c(C)c2c1OC(C)(C)CC2

>  <GI50>
16.3 µM (inactive)

$$$$
>  <Molecule>
COc1ccc(/N=N/c2c(C)c(C#N)c(=S)n(C3OC(COC(C)=O)C(OC(C)=O)C(OC(C)=O)C3OC(C)=O)c2-c2ccccc2)cc1 (centres undefined)

>  <GI50>
5.85 µM (inactive)

$$$$
>  <Molecule>
Cc1ccc(S(=O)(=O)OC2CSSCC2OS(=O)(=O)c2ccc(C)cc2)cc1 (centres undefined)

>  <GI50>
16.2 µM (inactive)

$$$$
>  <Molecule>
COc1cc2c3c(c1OC)C1(C=CC(=O)C=C1)C[C@H]3N(C)CC2 [PRONUCIFERINE]

>  <GI50>
> 100 µM (inactive)

$$$$
>  <Molecule>
O=C(CC1(O)C(=O)Nc2ccc([N+](=O)[O-])cc21)c1ccc2ccccc2c1 (centres undefined)

>  <GI50>
> 100 µM (inactive)

$$$$
>  <Molecule>
CN(C)CC[N+](C)(C)[BH2-]C(O)O

>  <GI50>
> 100 µM (inactive)

$$$$
>  <Molecule>
CSc1ccc(/C=C2\CN(C)C/C(=C\c3ccc(SC)cc3)C2=O)cc1

>  <GI50>
21.1 µM (inactive)

$$$$

====

- Tested on: SF-295
- Protocol summary: NCI tumour cell line growth inhibition, 48 h
The source made the active and inactive calls. Cut-off read from the data, not from the text of the source: active = GI50 up to about 1.1 µM and inactive = higher.
Outcome codes: true (active), false (inactive)

>  <Compound>
COc1ccc(C(=O)/C=C/c2ccc(Oc3cc(C(=O)/C=C/c4ccc(O)cc4)c(O)cc3OC)cc2)c(O)c1 [RHUSCHALCONE I]

>  <Class label>
false

$$$$
>  <Compound>
C[N+]1(C)CCc2cc(O)c(O)cc2C1Cc1ccc(O)c(O)c1 (stereo not drawn)

>  <Class label>
false

$$$$
>  <Compound>
COc1cc(C2c3cc4c(cc3[C@@H](Nc3ccc5c(c3)OCCO5)C3COC(=O)[C@H]23)OCO4)cc(OC)c1O (stereo partly drawn)

>  <Class label>
true

$$$$
>  <Compound>
COc1cc(-c2c3c(cc4c2OCO4)[C@@H](Nc2ccc4c(c2)Cc2cc(N[C@@H]5c6cc7c(cc6C(c6cc(OC)c(O)c(OC)c6)[C@H]6C(=O)OC[C@H]56)OCO7)ccc2-4)[C@H]2COC(=O)[C@@H]2C3)cc(OC)c1O (stereo partly drawn)

>  <Class label>
false

$$$$
>  <Compound>
C[C@@H]1C(O)CC[C@H](C)C12CC=CC2=O (stereo partly drawn)

>  <Class label>
false

$$$$
>  <Compound>
O=C1CC(O)c2c(Br)sc(Br)c21 (stereo not drawn)

>  <Class label>
false

$$$$
>  <Compound>
N#CC(c1ccccc1)N(CCc1ccccc1)C(=O)c1ccccc1 (stereo not drawn)

>  <Class label>
false

$$$$
>  <Compound>
c1ccc(/N=c2/[nH]c3ccccc3s/c2=N/c2ccccc2)cc1

>  <Class label>
false

$$$$

====

- Test system: T47D
- Protocol summary: NCI tumour cell line growth inhibition, 48 h
Calls of active or inactive are those of the source. Rule as the data show it: active = GI50 up to about 1.1 µM and inactive = higher.
Outcome codes: True = active, False = inactive

>  <Compound>
COC(=O)[C@]12CC=C3O[C@@H]4OC5(CCCCC5)O[C@@H]4[C@H]3C1C(=O)C=CC2=O (stereo not given in full)

>  <Class label>
False

$$$$
>  <Compound>
CCOC(=O)c1c(SCCN(CC)CC)n(-c2ccccc2)c(=S)n(-c2ccccc2)c1=O

>  <Class label>
False

$$$$
>  <Compound>
O=C(O)c1ccc(Nc2nc3cc(C(F)(F)F)ccc3n3cccc23)cc1

>  <Class label>
False

$$$$
>  <Compound>
C1CCN2CC34CC(CC5CCCN(C6CCCC3N6)C54)C2C1 (stereo not given)

>  <Class label>
False

$$$$
>  <Compound>
Cc1coc2c1C(OC(=O)C(C)C)C1(C)C(C)CCC(O)C1C2=O (stereo not given)

>  <Class label>
False

$$$$
>  <Compound>
O=C(O)Cc1nc[nH]c1C(=O)O

>  <Class label>
False

$$$$
>  <Compound>
COc1ccc2c(c1)/C(=C(\C(Cl)=C(\Cl)N1CCCCC1)[N+](=O)[O-])N2

>  <Class label>
False

$$$$
>  <Compound>
CN(C)C(=S)/N=c1\ssc(=S)n1Cc1ccco1

>  <Class label>
True

$$$$
>  <Compound>
S=C=NC1CCC(c2cc3ccccc3s2)(N2CCCCC2)CC1 (stereo not given)

>  <Class label>
False

$$$$
>  <Compound>
CCCCCCC(C)CC(CCCCCC)NCCOC(=O)c1ccc([N+](=O)[O-])cc1 (stereo not given)

>  <Class label>
False

$$$$
>  <Compound>
Oc1ccc(Cl)cc1-c1cc(-c2ccccc2)nc(NCN2CCCCC2)n1

>  <Class label>
False

$$$$
>  <Compound>
CSC1(SC)CCCCCCCCCCC1

>  <Class label>
False

$$$$
>  <Compound>
CCCCCCCCCCCCn1c(=O)cc(NCCCC)c2cc3c(NCCCC)cc(=O)n(CCCCCCCCCCCC)c3nc21

>  <Class label>
False

$$$$
>  <Compound>
COc1cc2c(c(O)c1OC)C(=O)C1CCC(=O)N1C2c1cccc2ccccc12 (stereo not given)

>  <Class label>
False

$$$$
>  <Compound>
O=C(Nc1sccc1S(=O)(=O)c1ccc(Cl)cc1)c1ccccc1

>  <Class label>
False

$$$$

====

- Tested on: COLO 205
- Protocol summary: NCI tumour cell line growth inhibition, 48 h
Calls of active or inactive are those of the source. Rule as the data show it: active = GI50 up to about 1.1 µM and inactive = higher. Positions of bridges follow the written chain, without caps; N, C: chain ends. Non-standard residues stand in square brackets, D forms with d. Residues, ends and D or L forms follow the SMILES beside them. Aib = CC(C)(N)C(=O)O; βAla = NCCC(=O)O
Outcome codes: active, inactive

>  <Compound>
COc1ccc(C2c3cc4c(cc3OC3(OC)COC(=O)C23)OCO4)c(OC)c1 (stereo unspecified)

>  <Class label>
inactive

$$$$
>  <Compound>
CCC/C=C/C=C/C(=O)OC1C(C)C2(O)C3C=C(C)C(=O)C3CC(COC(C)=O)=CC2C2C(C)(C)C12OC(=O)C(C)C (stereo unspecified)

>  <Class label>
active

$$$$
>  <Compound>
Cc1cc(O)c(C=O)c(C)c1CCC1(C)C=Cc2cc(O)ccc2O1 (stereo unspecified)

>  <Class label>
inactive

$$$$
>  <Compound>
Fc1ccc(F)c(C2SCc3nc4ccccc4n32)c1 (stereo unspecified)

>  <Class label>
inactive

$$$$
>  <Compound>
COc1cc(C2SCC(=O)N2c2cccc(Cl)c2)cc(OC)c1OC (stereo unspecified)

>  <Class label>
inactive

$$$$
>  <Compound>
CC1(C)NC(=O)C(NC(=O)C(N)CC(=O)O)CCCCNC(=O)CCNC1=O (stereo unspecified) (H-DK[Aib][βAla]; lactam 2-C; configuration not given here)

>  <Class label>
inactive

$$$$
>  <Compound>
COc1cccc(C2c3cc4c(cc3OC(NNC(N)=O)C2C)OCO4)c1OC (stereo unspecified)

>  <Class label>
inactive

$$$$
>  <Compound>
CCCCNc1nc(O)c2[nH]cnc2n1

>  <Class label>
inactive

$$$$
>  <Compound>
COc1ccc(OC)c(/C=C(/C#N)c2ccccc2)c1

>  <Class label>
inactive

$$$$
>  <Compound>
C/C(=N/c1[nH]c(=O)cc2c1C(=O)CC2)N(C)C

>  <Class label>
inactive

$$$$
>  <Compound>
Cc1cccc2c1NC(=S)[C@@H]1CCCN1C2=O

>  <Class label>
inactive

$$$$
>  <Compound>
Cc1ccc(C(=O)c2[nH]c(NCc3ccccc3)c(C(=S)Nc3ccccc3)c2N)cc1

>  <Class label>
inactive

$$$$
>  <Compound>
OC(CCNC12CC3CC(CC(C3)C1)C2)c1ccccc1 (stereo unspecified)

>  <Class label>
inactive

$$$$
>  <Compound>
CC(=O)Nc1ccc2c3c(cc(O)c2c1)N(C(=O)CCCCCC(=O)Nc1ccc2c4c(cc(O)c2c1)N(C(=O)OC(C)(C)C)CC4CCl)CC3CCl (stereo unspecified)

>  <Class label>
inactive

$$$$
>  <Compound>
Fc1ccc(/N=C2C=C/C(=N\c3ccc(F)cc3)c3ccccc3\2)cc1

>  <Class label>
inactive

$$$$
>  <Compound>
CCc1nc(N)nc(N)c1-c1ccc2nnn(O)c2c1

>  <Class label>
inactive

$$$$
>  <Compound>
Nc1nc(N)c2nc(CNc3ccc(C(=O)NC(CCC(=O)O)C(=O)O)cc3F)cnc2n1 (stereo unspecified)

>  <Class label>
inactive

$$$$
>  <Compound>
CC(C)(C)O/N=C/c1cc(NC(=S)c2ccccc2)ccc1Cl

>  <Class label>
inactive

$$$$
>  <Compound>
O=c1[nH]c2cc(C(F)(F)F)ccc2nc1Cc1ccccc1

>  <Class label>
inactive

$$$$
>  <Compound>
Nc1ncnn2c(C3OC(CO)C(O)C3O)ccc12 (stereo unspecified)

>  <Class label>
active

$$$$
>  <Compound>
O=C(CCN1CCN(c2cccc(Cl)c2)CC1)N1CCc2c([nH]c3ccccc23)C1c1cccnc1 (stereo unspecified)

>  <Class label>
inactive

$$$$
